# experimental_details: Toxicity liver stage against HepG2, at 10uM
# Assay type: cell-based
# Set-up: test concentration 10 uM, cell line HepG2-A16-CD81EGFP
# recorded_conditions: human, HepG2-A16-CD81EGFP cells; read-out: INHIBITION
Readings of cytotoxicity at 10 µM for the listed molecules

In [3]: df
Out[3]:
                                   molecule       measurement_type  endpoint_result
0             NC(=O)CN1CC(c2nc(C3CC3)no2)C1  cytotoxicity at 10 µM            5.62%
1           N#Cc1ccc(N2CCCN(CC(N)=O)CC2)cc1  cytotoxicity at 10 µM            3.11%
2  O=C(C1SCCc2sccc21)N1CCCCC1 (configuration not stated)  cytotoxicity at 10 µM            9.78%
3  CCC(c1ccccc1)c1nn2c(CN(CC)CC)nnc2s1 (configuration not stated)  cytotoxicity at 10 µM            7.79%
4  O=C(COc1cccc(F)c1)N1C[C@@H](O)[C@H](N2CCOCC2)C1  cytotoxicity at 10 µM            6.02%

Now for the molecule whose cytotoxicity at 10 µM we want.
Note to self: cytotoxicity at 10 µM recorded for COc1ccc(COCC(O)CSc2ccc(NC(C)=O)cc2)cc1 (configuration not stated) was 8.22%

----------
# experimental_details: Toxicity liver stage against HepG2, at 10uM
# Assay type: cell-based
# Parameters: test concentration 10 uM, cell line HepG2-A16-CD81EGFP
# recorded_conditions: human, HepG2-A16-CD81EGFP cells; read-out: INHIBITION
measurement_type: cytotoxicity at 10 µM (%)
Field: numeric (%). Do not append units.

Examples with their reported cytotoxicity at 10 µM follow.
>>> df
                                   compound  endpoint_result
0            Cc1c(Br)cccc1C(=O)NCc1cnn(C)c1             3.15
1  CN1CCN([C@@H]2CCN(C3CCOC3)[C@H]2Cc2cnn(C)c2)CC1 (some centres not stated)             6.28
2    CCCC(=O)N1CCN(Cc2cc(-c3ccncc3)nn2C)CC1            -27.1
3  CCOCC1CN(C(=O)CS(C)(=O)=O)Cc2cnn(C)c21 (configuration not stated)            -6.63
4      CN(Cc1cn2c(n1)CN(C(N)=O)CC2)Cc1ccco1            -5.67

Note to self: cytotoxicity at 10 µM recorded for Cc1csc(CNC(=O)N2CCN(Cc3cc(C)on3)CC2)n1 was -5.49

Note to self: cytotoxicity at 10 µM recorded for CN(C)c1ncccc1CNC(=O)NCCN(C)C1CCCC1 was -11.9

Note to self: cytotoxicity at 10 µM recorded for O=C(c1ccccn1)C1CCCN(c2nccc(CCC(F)(F)F)n2)C1 (configuration not stated) was -4.27

----------
# experimental_details: Toxicity liver stage against HepG2, at 10uM
# Assay type: cell-based
# Parameters: test concentration 10 uM, cell line HepG2-A16-CD81EGFP
# recorded_conditions: human, HepG2-A16-CD81EGFP cells; read-out: INHIBITION
Readings of cytotoxicity at 10 µM for the listed compounds
Field: numeric (%). Do not append units.

>>> print(df.to_string())
                            compound  endpoint_result
0  O=C(NCCc1ccccn1)N1CCSC2(CCCCC2)C1            -18.6

Note to self: cytotoxicity at 10 µM recorded for Cc1nc(CN2CCCC(NCc3cnn(C)c3)C2)no1 (configuration not stated) was -2.53

Note to self: cytotoxicity at 10 µM recorded for Cc1c(NCc2ccccc2C#N)cccc1-n1cnnn1 was 15.4

Note to self: cytotoxicity at 10 µM recorded for CC(C)c1ocnc1C(=O)N1CCC(=O)Nc2cccnc21 was 1.15

Note to self: cytotoxicity at 10 µM recorded for Cc1ccc(-c2cc(C3=NC(=CN4CCN(C)CC4)NO3)[nH]n2)cc1 was -10.5

Note to self: cytotoxicity at 10 µM recorded for Cc1ncsc1CN(Cc1ccccc1)Cc1ncc[nH]1 was -3.22

Note to self: cytotoxicity at 10 µM recorded for Cc1cc(CC(=O)NC2CCCN(Cc3ccccc3)C2=O)n[nH]1 (configuration not stated) was 3.5

Note to self: cytotoxicity at 10 µM recorded for CCS(=O)(=O)N1CCC(NCC2CNc3cc(C)nn3C2)CC1 (configuration not stated) was 0.286

----------
Readings of cytotoxicity at 10 µM for the listed compounds
# experimental_details: Toxicity liver stage against HepG2, at 10uM
# Assay type: cell-based
# Parameters: test concentration 10 uM, cell line HepG2-A16-CD81EGFP
# recorded_conditions: human, HepG2-A16-CD81EGFP cells; read-out: INHIBITION

>>> print(df.to_string())
                                   compound  endpoint_result
0  O=C(C1CCC1)N1CCN(Cc2ccsc2)[C@H]2CS(=O)(=O)C[C@H]21             -12%
1  CN1CCOC(CN(C(=O)CN2CCCC2=O)c2nccs2)C1 (stereo unspecified)           -7.06%
2  CC(C)OC(=O)N1CCCC(c2nccn2Cc2ccncc2)C1 (stereo unspecified)            4.56%
3  OC(CN1CCN(c2ncccn2)CC1)c1cccc(F)c1 (stereo unspecified)             2.4%
4  O=C(NC1CCN(CC2CC2)C1)N1CCC(OC2CCCCC2)CC1 (stereo unspecified)            4.75%

Note to self: cytotoxicity at 10 µM recorded for CN(C)CCOCC1CN(C(=O)c2cscn2)Cc2ccnn2C1 (stereo unspecified) was 3.65%

----------
Readings of cytotoxicity at 10 µM for the listed compounds
# experimental_details: Toxicity liver stage against HepG2, at 10uM
# Type: cell-based
# Set-up: test concentration 10 uM, cell line HepG2-A16-CD81EGFP
# recorded_conditions: human, HepG2-A16-CD81EGFP cells; read-out: INHIBITION
Field: numeric (%). Do not append units.

                                   compound       measurement_type  endpoint_result
0      COC(=O)c1ccc(C(=O)NCc2ccc(Br)cc2)cn1  cytotoxicity at 10 µM            -23.2
1  COc1cc(C)cc(OC)c1C(C(=O)O)N(C)Cc1c(C)nn(C)c1C (stereo not drawn)  cytotoxicity at 10 µM             7.34
2  Cc1ccoc1C(=O)NCC(Cc1ccc(F)cc1)C(N)=O (stereo not drawn)  cytotoxicity at 10 µM            -0.77

Note to self: cytotoxicity at 10 µM recorded for c1cn(-c2ccc(N3CCC(NC4CC4)CC3)cc2)cn1 was 5.16

Note to self: cytotoxicity at 10 µM recorded for CNS(=O)(=O)c1ccc(CNC(=O)Nc2cc(C)on2)s1 was -2.34

Note to self: cytotoxicity at 10 µM recorded for CCCS(=O)(=O)N1CCC2(CN(c3cnn(C)c3)C(=O)CN2C)C1 (stereo not drawn) was -10.7

Note to self: cytotoxicity at 10 µM recorded for O=C(c1ccccn1)N1Cc2ccccc2OC2(CCOCC2)C1 was -12.9

Note to self: cytotoxicity at 10 µM recorded for CCS(=O)(=O)c1nnc([C@@H](N)Cc2ccccc2)o1 was 6.99

Note to self: cytotoxicity at 10 µM recorded for CO[C@H]1CCN(S(=O)(=O)c2cccs2)[C@H]1Cc1ccncc1 was -75

Note to self: cytotoxicity at 10 µM recorded for COc1cccc(OC2CN(C(=O)c3c(C)noc3C)C2)c1 was 7.79

Note to self: cytotoxicity at 10 µM recorded for COCCNC(=O)Cn1c(-c2ccc(Cl)cc2)nc(C)c(CCO)c1=O was -13.1

Note to self: cytotoxicity at 10 µM recorded for O=C(NCCc1ccccc1)C1CCN(C(=O)Cn2cncn2)C1 (stereo not drawn) was 2.55

Note to self: cytotoxicity at 10 µM recorded for Cc1c(NC(=O)c2ccc(Br)cc2)c(C(=O)N(C)C)nn1C was 3.65

----------
# experimental_details: Toxicity liver stage against HepG2, at 10uM
# Type: cell-based
# Design: test concentration 10 uM, cell line HepG2-A16-CD81EGFP
# recorded_conditions: human, HepG2-A16-CD81EGFP cells; read-out: INHIBITION
Readings of cytotoxicity at 10 µM for the listed compounds
Output should be the measured figure followed by the unit it is expressed in.

Examples with their reported cytotoxicity at 10 µM follow.
>>> df
                                   compound       measurement_type  endpoint_result
0  Cc1cnn(CCC(=O)NS(=O)(=O)N2CCCc3ccccc32)c1  cytotoxicity at 10 µM            9.73%
1  CN(C)C(=O)CN1CCN(Cc2coc(-c3cccc(F)c3)n2)CC1  cytotoxicity at 10 µM           -3.16%
2  Cc1cccnc1CNCC1(O)CCCN(CC2CCC2)C1=O (stereo not given)  cytotoxicity at 10 µM           -5.51%

Note to self: cytotoxicity at 10 µM recorded for CCOc1cccc(NC(=O)Cc2cccc(O)c2)n1 was -0.116%

Note to self: cytotoxicity at 10 µM recorded for CN(Cc1cccc(O)c1)C(=O)Nc1cccnc1N1CCCC1 was -0.565%
